tested on: 843782-103-R-J1-PDC complex spheroid viability; assay: Anticancer human tumor 843782-103-R-J1-PDC patient-derived lung adenocarcinoma cell line growth inhibition [RAS]; details: second compound 0.3 µM; first compound 0.00316 µM; stronger effect = lower value
Assign viability, T/C to each entry below.
# unit: % | format: bare number

Qu. What viability, T/C value was documented for this compound, O=C(c1ccc(F)c(F)c1Nc1ccc(I)cc1F)N1CC(O)([C@@H]2CCCCN2)C1 + CCn1c(-c2cc(N3CCN(C)CC3)cnc2C(C)OC)c2c3cc(ccc31)-c1csc(n1)CC(NC(=O)C1CC1C)C(=O)N1CCCC(N1)C(=O)OCC(C)(C)C2 ?
Ans. 10.4

Qu. Queued: CC(C)n1nc(-c2ccc3oc(N)nc3c2)c2c(N)ncnc21 + CCn1c(-c2cc(N3CCN(C)CC3)cnc2C(C)OC)c2c3cc(ccc31)-c1csc(n1)CC(NC(=O)C1CC1C)C(=O)N1CCCC(N1)C(=O)OCC(C)(C)C2
Ans. 10.7

Qu. One more compound: C=CC(=O)N1CCN(c2nc(OCC3CCCN3C)nc3c(F)c(-c4nc(N)cc(C)c4C(F)(F)F)c(Cl)cc23)C(C)C1 (stereo unspecified) + CCn1c(-c2cccnc2C(C)OC)c2c3cc(ccc31)N1CCOC(CC(NC(=O)C(C(C)C)N(C)C(=O)C3(F)CCN(C(=O)C#CC(C)(C)N(C)C)CC3)C(=O)N3CCCC(N3)C(=O)OCC(C)(C)C2)C1
Ans. 65.4

Qu. Proceed to CCN1CCN(Cc2ccc(Nc3ncc(F)c(-c4cc(F)c5nc(C)n(C(C)C)c5c4)n3)nc2)CC1 + CCn1c(-c2cccnc2C(C)OC)c2c3cc(ccc31)N1CCOC(CC(NC(=O)C(C(C)C)N(C)C(=O)C3(F)CCN(C(=O)C#CC(C)(C)N(C)C)CC3)C(=O)N3CCCC(N3)C(=O)OCC(C)(C)C2)C1
Ans. 72

Qu. And for CCN1CCN(Cc2ccc(Nc3ncc(F)c(-c4cc(F)c5nc(C)n(C(C)C)c5c4)n3)nc2)CC1 + CCn1c(-c2cc(N3CCN(C)CC3)cnc2C(C)OC)c2c3cc(ccc31)-c1csc(n1)CC(NC(=O)C1CC1C)C(=O)N1CCCC(N1)C(=O)OCC(C)(C)C2 ?
Ans. 17.1

Qu. Consider next the compound C=CC(=O)N1CCN(c2nc(OCC3CCCN3C)nc3c(F)c(-c4nc(N)cc(C)c4C(F)(F)F)c(Cl)cc23)C(C)C1 (stereo unspecified) + CCn1c(-c2cc(N3CCN(C)CC3)cnc2C(C)OC)c2c3cc(ccc31)-c1csc(n1)CC(NC(=O)C1CC1C)C(=O)N1CCCC(N1)C(=O)OCC(C)(C)C2 in the same way.
Ans. 14.6

====

Can you tell me viability, T/C for the items I'm about to list?
test system: 843782-103-R-J1-PDC complex spheroid viability; assay: Anticancer human tumor 843782-103-R-J1-PDC cell line growth inhibition [RAS]; conditions: second compound 10 µM; first compound 0.1 µM; stronger effect = lower value;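 note: viability read after seven days of compound exposure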
Dear colleague, please return just the value in %, with no unit written.

Qu. // returns reported viability, T/C for input CC(C)n1nc(-c2ccc3oc(N)nc3c2)c2c(N)ncnc21 + C#Cc1c(F)ccc2cc(O)cc(-c3ncc4c(N5CC6CCC(C5)N6)nc(OCC56CCCN5CC(F)C6)nc4c3F)c12
Ans. 10.6

Qu. Would you kindly repeat that for Nc1ccn(C2OC(CO)C(O)C2(F)F)c(=O)n1 (centres undefined) + C#Cc1c(F)ccc2cc(O)cc(-c3ncc4c(N5CC6CCC(C5)N6)nc(OCC56CCCN5CC(F)C6)nc4c3F)c12 ?
Ans. 9.79

Qu. Could you do the same for C=CC(=O)Nc1cc(Nc2nccc(-c3cn(C)c4ccccc34)n2)c(OC)cc1N(C)CCN(C)C + C#Cc1c(F)ccc2cc(O)cc(-c3ncc4c(N5CC6CCC(C5)N6)nc(OCC56CCCN5CC(F)C6)nc4c3F)c12 , please?
Ans. 44.7

Qu. // repeat for CCC(CC)c1cc(NC2CCC(N)C2)n2nccc2n1 (centres undefined) + C#Cc1c(F)ccc2cc(O)cc(-c3ncc4c(N5CC6CCC(C5)N6)nc(OCC56CCCN5CC(F)C6)nc4c3F)c12 and report
Ans. 59.9

Qu. Another molecule to check: CC1(O)CCCC1n1c(=O)c(C(F)F)cc2cnc(NC3CCN(S(C)(=O)=O)CC3)nc21 (centres undefined) + C#Cc1c(F)ccc2cc(O)cc(-c3ncc4c(N5CC6CCC(C5)N6)nc(OCC56CCCN5CC(F)C6)nc4c3F)c12
Ans. 32.7

Qu. Thanks! And CC(C)NCC(C(=O)N1CCN(c2ncnc3c2C(C)CC3O)CC1)c1ccc(Cl)cc1 (centres undefined) + C#Cc1c(F)ccc2cc(O)cc(-c3ncc4c(N5CC6CCC(C5)N6)nc(OCC56CCCN5CC(F)C6)nc4c3F)c12 ?
Ans. 55

Qu. Same question, CC(=O)OC12COC1CC(O)C1(C)C(=O)C(O)C3=C(C)C(OC(=O)C(O)C(NC(=O)OC(C)(C)C)c4ccccc4)CC(O)(C(OC(=O)c4ccccc4)C21)C3(C)C (centres undefined) + C#Cc1c(F)ccc2cc(O)cc(-c3ncc4c(N5CC6CCC(C5)N6)nc(OCC56CCCN5CC(F)C6)nc4c3F)c12 this time
Ans. 3.91

Qu. Would you kindly repeat that for CC(Nc1ccc2c(c1)OCCn1cc(N3C(=O)OCC3C(F)F)nc1-2)C(N)=O (centres undefined) + C#Cc1c(F)ccc2cc(O)cc(-c3ncc4c(N5CC6CCC(C5)N6)nc(OCC56CCCN5CC(F)C6)nc4c3F)c12 ?
Ans. 22.2

Qu. Quick one: C=CC(=O)N1CCN(c2nc(OCC3CCCN3C)nc3c(F)c(-c4nc(N)cc(C)c4C(F)(F)F)c(Cl)cc23)C(C)C1 (centres undefined) + C#Cc1c(F)ccc2cc(O)cc(-c3ncc4c(N5CC6CCC(C5)N6)nc(OCC56CCCN5CC(F)C6)nc4c3F)c12
Ans. 49.7

====

test system: 843782-103-R-J1-PDC complex spheroid viability; assay: Anticancer human tumor 843782-103-R-J1-PDC cell line growth inhibition [RAS]; settings: curve of first compound; second compound 0.0316 µM;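 note: viability read after seven days of compound exposure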
QUANTITY MEASURED: pIC50
On this scale, pIC50 is minus log10 of a concentration expressed in M (mol/L).

Qu. Give 843782-103-R-J1-PDC complex spheroid viability pIC50 for CC1(O)CCCC1n1c(=O)c(C(F)F)cc2cnc(NC3CCN(S(C)(=O)=O)CC3)nc21 (configuration not stated) + C#Cc1c(F)ccc2cc(O)cc(-c3ncc4c(N5CC6CCC(C5)N6)nc(OCC56CCCN5CC(F)C6)nc4c3F)c12
Ans. 6.63

====

tested on: 843782-103-R-J1-PDC complex spheroid viability; assay: Anticancer human tumor 843782-103-R-J1-PDC cell line growth inhibition [RAS]; conditions: second compound 0.00316 µM; first compound 10 µM; active means viability on the fitted dose curve at most 10% of control; inactive means the rest;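 note: viability read after seven days of compound exposure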
Answer with one of the outcomes 1 = active, 0 = inactive

Qu. Hi, do you know how C[C@@H](NC(=O)c1ncnc(N)c1Cl)c1ncc(C(=O)Nc2cc(C(F)(F)F)c(Cl)cn2)s1 + C=CC(=O)N1CCN(c2nc(OCC3CCCN3C)nc3c(F)c(-c4nc(N)cc(C)c4C(F)(F)F)c(Cl)cc23)C(C)C1 came out in this test?
Ans. 0

Qu. Can you handle CCC(CC)c1cc(NC2CCC(N)C2)n2nccc2n1 (stereo not drawn) + C=CC(=O)N1CCN(c2nc(OCC3CCCN3C)nc3c(F)c(-c4nc(N)cc(C)c4C(F)(F)F)c(Cl)cc23)C(C)C1 next?
Ans. 1

Qu. Let us now turn to CC1(O)CCCC1n1c(=O)c(C(F)F)cc2cnc(NC3CCN(S(C)(=O)=O)CC3)nc21 (stereo not drawn) + C=CC(=O)N1CCN(c2nc(OCC3CCCN3C)nc3c(F)c(-c4nc(N)cc(C)c4C(F)(F)F)c(Cl)cc23)C(C)C1
Ans. 1

Qu. And what about the compound CC(Nc1ccc2c(c1)OCCn1cc(N3C(=O)OCC3C(F)F)nc1-2)C(N)=O (stereo not drawn) + C=CC(=O)N1CCN(c2nc(OCC3CCCN3C)nc3c(F)c(-c4nc(N)cc(C)c4C(F)(F)F)c(Cl)cc23)C(C)C1 ?
Ans. 0

Qu. Quick one: NC1c2ccccc2OC12CCN(c1cnc3c(N4CCCc5ncccc54)n[nH]c3n1)CC2 (stereo not drawn) + C=CC(=O)N1CCN(c2nc(OCC3CCCN3C)nc3c(F)c(-c4nc(N)cc(C)c4C(F)(F)F)c(Cl)cc23)C(C)C1
Ans. 0

Qu. # iterate: CC(C)NCC(C(=O)N1CCN(c2ncnc3c2C(C)CC3O)CC1)c1ccc(Cl)cc1 (stereo not drawn) + C=CC(=O)N1CCN(c2nc(OCC3CCCN3C)nc3c(F)c(-c4nc(N)cc(C)c4C(F)(F)F)c(Cl)cc23)C(C)C1
Ans. 1

Qu. Then this compound: Cc1nc(N2CCC3(CC2)COC(C)C3N)c(CO)nc1Sc1ccnc(N)c1Cl (stereo not drawn) + C=CC(=O)N1CCN(c2nc(OCC3CCCN3C)nc3c(F)c(-c4nc(N)cc(C)c4C(F)(F)F)c(Cl)cc23)C(C)C1
Ans. 0

Qu. Same question for CC(=O)OC12COC1CC(O)C1(C)C(=O)C(O)C3=C(C)C(OC(=O)C(O)C(NC(=O)OC(C)(C)C)c4ccccc4)CC(O)(C(OC(=O)c4ccccc4)C21)C3(C)C (stereo not drawn) + C=CC(=O)N1CCN(c2nc(OCC3CCCN3C)nc3c(F)c(-c4nc(N)cc(C)c4C(F)(F)F)c(Cl)cc23)C(C)C1 please.
Ans. 1
